Reported pIC50 values are given for each entry in this list.
tested system: UniProt:P05412
measurement protocol: Concentration required to inhibit activator protein-1(AP-1) mediated transcriptional activation in human Jurkat T-cells
pIC50: −log10 of the molar value.

structure smiles string	result qualifier	pIC50
Cc1nc(C(F)(F)F)ncc1C(=O)Nc1cc(C(F)(F)F)cc(C(F)(F)F)c1	<	5.00
CCCc1nc(Cl)ncc1C(=O)Nc1cc(C(F)(F)F)cc(C(F)(F)F)c1	=	6.30
O=C(Nc1cc(C(F)(F)F)cc(C(F)(F)F)c1)c1cnc(C(F)(F)F)nc1Cl	<	5.00
O=C(Nc1cc(C(F)(F)F)cc(C(F)(F)F)c1)c1cc(C(F)(F)F)nc(Cl)n1	<	5.00
O=C(Nc1cc(C(F)(F)F)cc(C(F)(F)F)c1)c1cnc(Cl)nc1	=	6.52
O=C(Nc1cc(C(F)(F)F)cc(C(F)(F)F)c1)c1cnc(C(F)(F)F)nc1C(F)(F)F	<	5.00
CCc1nc(Cl)ncc1C(=O)Nc1cc(C(F)(F)F)cc(C(F)(F)F)c1	=	6.52
O=C(Nc1cc(C(F)(F)F)cc(C(F)(F)F)c1)c1cnc(Cl)nc1C(F)(F)C(F)(F)F	=	6.22
O=C(Nc1cc(C(F)(F)F)cc(C(F)(F)F)c1)c1cnc(Cl)nc1-c1cccs1	=	5.10

* * *

tested system: Transcription factor Jun (Homo sapiens)
Sequence (P05412 whole entry): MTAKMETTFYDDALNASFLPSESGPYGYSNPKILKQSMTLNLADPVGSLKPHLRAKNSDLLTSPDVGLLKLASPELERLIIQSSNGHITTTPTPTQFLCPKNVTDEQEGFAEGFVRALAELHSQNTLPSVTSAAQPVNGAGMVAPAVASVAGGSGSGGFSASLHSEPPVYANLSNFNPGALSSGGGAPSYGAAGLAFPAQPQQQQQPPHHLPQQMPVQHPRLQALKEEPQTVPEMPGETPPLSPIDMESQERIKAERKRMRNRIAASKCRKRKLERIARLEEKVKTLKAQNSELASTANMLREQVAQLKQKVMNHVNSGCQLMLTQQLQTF
measurement protocol: Concentration required to inhibit activator protein-1(AP-1) mediated transcriptional activation in human Jurkat T-cells
pIC50: −log10 of the molar value.
measured property: pIC50

structure smiles string	tested system	result
O=C(Nc1cc(C(F)(F)F)cc(C(F)(F)F)c1)c1cnc(C(F)(F)F)nc1	Transcription factor Jun (Homo sapiens)	< 5.00
O=C(Nc1cc(C(F)(F)F)cc(C(F)(F)F)c1)c1cnc(-c2ccccc2)nc1	Transcription factor Jun (Homo sapiens)	< 5.00
N#Cc1ncc(C(=O)Nc2cc(C(F)(F)F)cc(C(F)(F)F)c2)c(C(F)(F)F)n1	Transcription factor Jun (Homo sapiens)	< 5.00
O=C(Nc1cc(C(F)(F)F)cc(C(F)(F)F)c1)c1ccc(Cl)cc1C(F)(F)F	Transcription factor Jun (Homo sapiens)	< 4.52
Cc1ncc(C(=O)Nc2cc(C(F)(F)F)cc(C(F)(F)F)c2)c(C(F)(F)F)n1	Transcription factor Jun (Homo sapiens)	< 5.00
O=C(Nc1cc(C(F)(F)F)cc(C(F)(F)F)c1)c1cc(Cl)nc(Cl)n1	Transcription factor Jun (Homo sapiens)	< 5.00
Cc1cc(C(=O)Nc2cc(C(F)(F)F)cc(C(F)(F)F)c2)nc(Cl)n1	Transcription factor Jun (Homo sapiens)	< 5.00
